Molecular target: human pro-myostatin (human, UniProt O14793 24-375, biotinylated (in the SPR assay))
Test: cell-based or functional assay
property-label: IC50 (nM) Pro + Furin
Expressed in nM, but write only the number.

binder | property-label | reported-result
Ab106 (antibody, human IgG4 S228P, kappa, V domains shown) VH: EVQLVESGGGLVQPGGSLRLSCAASGSAFSSYGMSWVRQAPGKGLELVASINSNGGSTYYPDSVKGRFTISRDNAKNSLYLQMNSLRAEDTAVYYCARDLLVRFLEWAGYYGMDVWGQGTTVTVSS VL: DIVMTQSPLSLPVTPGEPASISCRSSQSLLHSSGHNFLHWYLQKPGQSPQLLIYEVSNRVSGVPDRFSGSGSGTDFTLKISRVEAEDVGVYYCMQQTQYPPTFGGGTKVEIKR | IC50 (nM) Pro + Furin | 0.233
Ab102 (antibody, human IgG4 S228P, kappa, V domains shown) VH: EVQLVESGGGLVQPGGSLRLSCAASGFTFTSYGMSWVRQAPGKGLELVASITGSGGETYYPDSVKGRFTISRDNAKNSLYLQMNSLRAEDTAVYYCARDLLVRFLEWSHYYGMDVWGQGTTVTVSS VL: DIVMTQSPLSLPVTPGEPASISCRSSQSLLHSSGHNFLHWYLQKPGQSPQLLIYETSNRAPGIPDRFSGSGSGTDFTLKISRVEAEDVGVYYCMQATQFPRPFGGGTKVEIKR | IC50 (nM) Pro + Furin | 0.211

Now take the following binder into account.
Give a short answer stating reported IC50 (nM) Pro + Furin for Ab121 (antibody, human IgG4 S228P, kappa, V domains shown) VH: QVTLRESGPALVKPTQTLTLTCTVSGFSFSTSGMVVNWIRQPPGKALEWLAMIDWDADNIVYNSALKSRLTISKDTSKNQVVLTMTNMDPVDTATYYCAKDTGSGWFDAFDIWGQGTMVTVSS VL: DIVMTQSPDSLAVSLGERATINCKSSQSVLYSSTNQNFLAWYQQKPGQPPKLLIYQASTLQNGVPDRFSGSGSGTDFTLTISSLQAEDVAVYYCQQYLTTPYTFGGGTKVEIKR . 0.143
